# Study system: PD-1-Ig binding to PD-L1-TVMV-His (PD-L1-His) (Homo sapiens, UniProt Q9NZQ7)
# Construct: hPDL1(19-239)-TVMV-His; made in house; host or cells: HEK293T cells
# Sequence (Q9NZQ7 with tags, fused parts or gaps): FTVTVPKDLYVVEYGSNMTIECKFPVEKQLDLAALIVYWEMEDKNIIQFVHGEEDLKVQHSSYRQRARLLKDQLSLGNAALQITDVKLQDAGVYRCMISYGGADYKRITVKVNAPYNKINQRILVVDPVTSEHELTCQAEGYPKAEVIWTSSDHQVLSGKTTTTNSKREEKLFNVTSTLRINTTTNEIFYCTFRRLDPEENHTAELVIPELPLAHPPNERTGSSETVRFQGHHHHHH
# Experiment notes: PD-1/PD-L1 Homogenous Time-Resolved Fluorescence (HTRF) binding assay
# Condition summary: PD-1-Ig (20 nM) / PD-L1-His (10 nM); range classes
pIC50: −log10 of the molar value.
Quantity measured: pIC50

Compound	Quantity measured	Val
CCCC[C@H]1C(=O)N(C)[C@@H](CCCC)C(=O)N[C@@H](C)C(=O)N[C@H](C(=O)NCC(N)=O)CCCNCC(=O)N[C@@H](Cc2ccc(O)cc2)C(=O)N(C)[C@@H](C)C(=O)N[C@@H](CC(=O)O)C(=O)N2CCC[C@H]2C(=O)N[C@@H](Cc2cnc[nH]2)C(=O)N[C@@H](CCC(N)=O)C(=O)N2C[C@H](O)C[C@H]2C(=O)N[C@@H](Cc2c[nH]c3ccccc23)C(=O)N[C@@H](CO)C(=O)N[C@@H](Cc2cn(CC(=O)O)c3ccccc23)C(=O)N1C [Example 10016]	pIC50	8.00 to 9.00

Turning to the following compound.
query: Any idea what its pIC50 is? The compound is CCCC[C@H]1C(=O)N(C)[C@@H](CCCC)C(=O)N[C@@H](CCC(=O)O)C(=O)N[C@H](C(N)=O)CNCC(=O)N[C@@H](Cc2ccc(O)cc2)C(=O)N2CCCC[C@H]2C(=O)N[C@@H](CC(N)=O)C(=O)N2CCC[C@H]2C(=O)N[C@@H](CCC(N)=O)C(=O)N[C@@H](CCC(=O)O)C(=O)N2C[C@H](O)C[C@H]2C(=O)N[C@@H](Cc2c[nH]c3ccccc23)C(=O)N[C@@H](CC(N)=O)C(=O)N[C@@H](Cc2cn(CC(=O)O)c3ccccc23)C(=O)N1C [Example 9044]
result: 8.00 to 9.00

----------
# Study system: PD-1-Ig binding to PD-L1-TVMV-His (PD-L1-His) (Homo sapiens, UniProt Q9NZQ7)
# Construct: hPDL1(19-239)-TVMV-His; made in house; host or cells: HEK293T cells
# Experiment notes: PD-1/PD-L1 Homogenous Time-Resolved Fluorescence (HTRF) binding assay
# Condition summary: PD-1-Ig (20 nM) / PD-L1-His (10 nM); numeric values
Non-standard residues stand in square brackets, D forms with d. Residues, ends and D or L forms follow the SMILES beside them. Trp(1-CH2COOH) = N[C@@H](Cc1cn(CC(=O)O)c2ccccc12)C(=O)O; Hyp = O=C(O)[C@@H]1C[C@@H](O)CN1; NMeNle = CCCC[C@H](NC)C(=O)O; Pip = O=C(O)[C@@H]1CCCCN1; Dab = NCC[C@H](N)C(=O)O; Dap = NC[C@H](N)C(=O)O; Ava = NCCCCC(=O)O
The entries below are paired with their reported IC50.
Give the quantity in nM, number only.

// below: answered molecules
Molecule	Unit spec	IC50
CCCC[C@H]1C(=O)N(C)[C@@H](CCCC)C(=O)N[C@@H](CC(C)C)C(=O)N[C@H](C(N)=O)CNCC(=O)N[C@@H](Cc2ccc(F)cc2)C(=O)N2CCCC[C@H]2C(=O)N[C@@H](CC(=O)O)C(=O)N2CCC[C@H]2C(=O)N[C@@H](CCC(N)=O)C(=O)N[C@@H](CCC(N)=O)C(=O)N2C[C@H](O)C[C@H]2C(=O)N[C@@H](Cc2c[nH]c3ccccc23)C(=O)N[C@@H](CC(N)=O)C(=O)N[C@@H](Cc2cn(CC(=O)O)c3ccccc23)C(=O)N1C [Example 9041]	nM	5
CCCC[C@H]1C(=O)N(C)[C@@H](CCCC)C(=O)N[C@@H](CC(C)C)C(=O)N[C@H](C(=O)NCC(N)=O)CNCC(=O)N[C@@H](Cc2ccc(F)cc2)C(=O)N(C)[C@@H](C)C(=O)N[C@@H](CC(=O)O)C(=O)N2CCC[C@H]2C(=O)N[C@@H](CCC(N)=O)C(=O)N[C@@H](CC(=O)O)C(=O)N2C[C@H](O)C[C@H]2C(=O)N[C@@H](Cc2c[nH]c3ccccc23)C(=O)N[C@@H](CC(N)=O)C(=O)N[C@@H](Cc2cn(CC(=O)O)c3ccccc23)C(=O)N1C [Example 9015]	nM	15
CCCC[C@H]1C(=O)N(C)[C@@H](CCCC)C(=O)N[C@@H](CC(C)C)C(=O)N[C@H](C(=O)NCC(N)=O)CCNCC(=O)N[C@@H](Cc2ccc(O)cc2)C(=O)N(C)[C@@H](C)C(=O)N[C@@H](CC(N)=O)C(=O)N2CCC[C@H]2C(=O)N[C@@H](Cc2cnc[nH]2)C(=O)N[C@@H](CC(C)C)C(=O)N2C[C@H](O)C[C@H]2C(=O)N[C@@H](Cc2c[nH]c3ccccc23)C(=O)NCC(=O)N[C@@H](Cc2c[nH]c3ccccc23)C(=O)N1C [Example 10027]	nM	6.95
CCCC[C@H]1C(=O)N(C)[C@@H](CCCC)C(=O)N[C@@H](CCC(=O)O)C(=O)N[C@H](C(=O)NCC(N)=O)CNCC(=O)N[C@@H](Cc2ccc(F)cc2)C(=O)N(C)[C@@H](C)C(=O)N[C@@H](CC(N)=O)C(=O)N2CCC[C@H]2C(=O)N[C@@H](CCC(N)=O)C(=O)N[C@@H](CCC(N)=O)C(=O)N2C[C@H](O)C[C@H]2C(=O)N[C@@H](Cc2c[nH]c3ccccc23)C(=O)N[C@@H](CC(N)=O)C(=O)N[C@@H](Cc2cn(CC(=O)O)c3ccccc23)C(=O)N1C [Example 9025]	nM	16

Turning to the following molecule.
query: Hello, I am looking for reported IC50 with PD-1-Ig binding to PD-L1-TVMV-His (PD-L1-His) (Homo sapiens, UniProt Q9NZQ7) for CCCC[C@H]1C(=O)N(C)[C@@H](CCCC)C(=O)N[C@@H](CC(C)C)C(=O)NCCCCC(=O)N[C@@H](Cc2ccc(O)cc2)C(=O)N2CCCC[C@H]2C(=O)N[C@@H](CC(N)=O)C(=O)N2CCC[C@H]2C(=O)N[C@@H](CN)C(=O)N[C@@H](CCC(=O)O)C(=O)N2C[C@H](O)C[C@H]2C(=O)N[C@@H](Cc2c[nH]c3ccccc23)C(=O)N[C@@H](CCN)C(=O)N[C@@H](Cc2cn(CC(=O)O)c3ccccc23)C(=O)N1C [Example 10513] (cyclo([Ava]Y[Pip]NP[Dap]E[Hyp]W[Dab][Trp(1-CH2COOH)][NMeNle][NMeNle]L)) . Could you help?
result: 354

----------
# Study system: PD-1-Ig binding to PD-L1-TVMV-His (PD-L1-His) (Homo sapiens, UniProt Q9NZQ7)
# Construct: hPDL1(19-239)-TVMV-His; made in house; host or cells: HEK293T cells
# Experiment notes: PD-1/PD-L1 Homogenous Time-Resolved Fluorescence (HTRF) binding assay
# Condition summary: PD-1-Ig (20 nM) / PD-L1-His (10 nM); range classes
Non-standard residues stand in square brackets, D forms with d. Residues, ends and D or L forms follow the SMILES beside them. Hyp = O=C(O)[C@@H]1C[C@@H](O)CN1; NMeNle = CCCC[C@H](NC)C(=O)O; NMeA = CN[C@@H](C)C(=O)O; βAla = NCCC(=O)O
Quantity measured: IC50

query: Any idea what its IC50 is? The molecule is CCCC[C@H]1C(=O)N(C)[C@@H](CCCC)C(=O)N[C@@H](CC(C)C)C(=O)NCC(=O)NCCC(=O)N[C@@H](Cc2ccc(O)cc2)C(=O)N(C)[C@@H](C)C(=O)N[C@@H](CC(N)=O)C(=O)N2CCC[C@H]2C(=O)N[C@@H](Cc2c[nH]cn2)C(=O)N[C@@H](CC(C)C)C(=O)N2C[C@H](O)C[C@H]2C(=O)N[C@@H](Cc2c[nH]c3ccccc23)C(=O)NCC(=O)N[C@@H](Cc2c[nH]c3ccccc23)C(=O)N1C [Example 5004] (cyclo(GW[NMeNle][NMeNle]LG[βAla]Y[NMeA]NPHL[Hyp]W))
result: 0.1 to 10 µM

----------
# Study system: PD-1-Ig binding to PD-L1-TVMV-His (PD-L1-His) (Homo sapiens, UniProt Q9NZQ7)
# Construct: hPDL1(19-239)-TVMV-His; made in house; host or cells: HEK293T cells
# Experiment notes: PD-1/PD-L1 Homogenous Time-Resolved Fluorescence (HTRF) binding assay
# Condition summary: PD-1-Ig (20 nM) / PD-L1-His (10 nM); range classes
pIC50: −log10 of the molar value.
The entries below are paired with their reported pIC50.

CCCC[C@H]1C(=O)N(C)[C@@H](CCCC)C(=O)N[C@@H](CO)C(=O)N[C@H](C(=O)NCC(N)=O)CCCNCC(=O)N[C@@H](Cc2ccc(O)cc2)C(=O)N(C)[C@@H](C)C(=O)N[C@@H](CC(N)=O)C(=O)N2CCC[C@H]2C(=O)N[C@@H](Cc2cnc[nH]2)C(=O)N[C@@H](CCC(N)=O)C(=O)N2C[C@H](O)C[C@H]2C(=O)N[C@@H](Cc2c[nH]c3ccccc23)C(=O)N[C@@H](CO)C(=O)N[C@@H](Cc2c[nH]c3ccccc23)C(=O)N1C 5.00 to 7.00

query: Hello, I am looking for reported pIC50 with PD-1-Ig binding to PD-L1-TVMV-His (PD-L1-His) (Homo sapiens, UniProt Q9NZQ7) for "CCCC[C@H]1C(=O)N(C)[C@@H](CCCC)C(=O)N[C@@H](CC(C)C)C(=O)N[C@H](C(=O)NCC(N)=O)CNCC(=O)N[C@@H](Cc2ccc(O)cc2)C(=O)N(C)[C@@H](C)C(=O)N[C@@H](CC(N)=O)C(=O)N2CCC[C@H]2C(=O)N[C@@H](Cc2cnc[nH]2)C(=O)N[C@@H](CCC(N)=O)C(=O)N2C[C@H](O)C[C@H]2C(=O)N[C@@H](Cc2c[nH]c3ccccc23)C(=O)NCC(=O)N[C@@H](Cc2c[nH]c3ccccc23)C(=O)N1C" . Could you help?
result: 8.00 to 9.00
